assay: Blood pharmacokinetics of cabotegravir after a single subcutaneous administration with or without rHuPH20; assay type: in vivo, male Sprague-Dawley rats; settings: male, Sprague-Dawley, rat, whole blood, sc, 5 mg/kg, rat blood, single SC 5 mg/kg, without rHuPH20 (Group 3), individual animals; read-out: Tmax
Measurement type: Tmax (days)
Give bare numbers, in days.

Given the entry C[C@H]1CO[C@@H]2Cn3cc(C(=O)NCc4ccc(F)cc4F)c(=O)c(O)c3C(=O)N12 [Cabotegravir] , report its measured Tmax. 14.2

----------
Experiment: Blood pharmacokinetics of cabotegravir after a single subcutaneous administration with or without rHuPH20
Assay type: in vivo, male Sprague-Dawley rats
Conditions: male, Sprague-Dawley, rat, whole blood, sc, 10 mg/kg, rat blood, single SC 10 mg/kg, with rHuPH20 approx. 3000 units SC (Group 2), mean ± SD; read-out: T½ (converted)
Description: Cabotegravir (free acid) was supplied by the Department of Pharmaceutical Development, at GSK, Upper Providence (UP), as a wet bead milled suspension (WBM), of nominal 200 mg/mL active concentration, white to slightly pink in appearance to be used for subcutaneous (SC) injection. […] Rat blood: water samples were analyzed for cabotegravir using an analytical method based on protein precipitation, followed by UPLC/MS/MS analysis. […]
Measurement type: half-life (days)
One number for each entry, in days.

So what's the measured half-life for this one? C[C@H]1CO[C@@H]2Cn3cc(C(=O)NCc4ccc(F)cc4F)c(=O)c(O)c3C(=O)N12 15

FYI, the data here is from patent US20230405095A1.
